Test system: Z-138 cell line
Test: Z-138 Proliferation Assay (Cell Titer Glo, 5 days)
Assay type: cell-based
Details: Homo sapiens, 120 h; Z-138 cells, 5 days, Cell Titer Glo; read-out: Proliferation EC50
Procedure: RPMI/Glutamax medium, penicillin-streptomycin, heat inactivated fetal bovine serum were purchased from Life Technologies, Grand Island, N.Y., USA. V-bottom polypropylene 384-well plates were purchased from Greiner Bio-One, Monroe, N.C., USA. […] SpectraMax M5 plate reader was purchased from Molecular Devices LLC, Sunnyvale, Calif., USA. […] Cell viability was measured by quantitation of ATP present in the cell cultures, adding […] of Cell Titer Glo® reagent to the cell plates. […]
assay.readout: EC50

| molecule | assay.readout | readout.value |
| --- | --- | --- |
| CN(C)CCN(C)c1nc(NC2COC2)cc(C(=O)NC[C@H](O)CN2CCc3ccccc3C2)n1 [Compound 525] | EC50 | 101 to 1000 nM |
| CCN(C)[C@H]1CC[C@H](Nc2cc(C(=O)NC[C@H](O)CN3CCc4ccccc4C3)ncn2)CC1 [Compound 662] | EC50 | 101 to 1000 nM |
| CCC(=O)N1CCN(c2nc(NC3CNC3)cc(C(=O)NC[C@H](O)CN3CCc4ccccc4C3)n2)CC1 [Compound 484] | EC50 | 1000 to 10000 nM |
| CC(=O)N1CC(Nc2cc(C(=O)NC[C@H](O)CN3CCc4ccccc4C3C)ncn2)C1 (stereo partly shown) [Compound 583] | EC50 | 1000 to 10000 nM |
